Target: recombinant human PAD2 (human, UniProt Q9Y2J8 1-665)
Sequence (Q9Y2J8 whole entry): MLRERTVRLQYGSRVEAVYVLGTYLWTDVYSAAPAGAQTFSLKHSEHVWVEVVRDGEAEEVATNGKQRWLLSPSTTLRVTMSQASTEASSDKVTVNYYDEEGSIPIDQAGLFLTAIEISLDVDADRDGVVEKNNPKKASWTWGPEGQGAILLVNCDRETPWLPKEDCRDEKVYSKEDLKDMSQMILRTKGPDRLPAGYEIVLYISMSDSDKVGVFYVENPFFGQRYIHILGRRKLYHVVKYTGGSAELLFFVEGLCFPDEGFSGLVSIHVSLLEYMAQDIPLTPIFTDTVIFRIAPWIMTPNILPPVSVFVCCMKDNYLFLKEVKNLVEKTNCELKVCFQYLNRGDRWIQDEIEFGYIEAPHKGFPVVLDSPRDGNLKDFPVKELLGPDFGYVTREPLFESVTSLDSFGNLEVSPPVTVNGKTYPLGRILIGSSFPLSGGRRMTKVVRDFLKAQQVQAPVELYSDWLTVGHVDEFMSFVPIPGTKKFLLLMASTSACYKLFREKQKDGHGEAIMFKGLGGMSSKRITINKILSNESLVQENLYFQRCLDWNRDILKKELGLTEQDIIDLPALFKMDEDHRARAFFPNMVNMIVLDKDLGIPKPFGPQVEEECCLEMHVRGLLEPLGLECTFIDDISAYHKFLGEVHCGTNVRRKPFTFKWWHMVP
Experiment: cell-based or functional assay
Square brackets hold non-standard residues; d marks the D form. Orn(fluoroacetimidoyl) = N=C(CF)NCCC[C@H](N)C(=O)O
resultType: conversion of 0708-30 by PAD2, 10 µM inhibitor (%)

# binder, measured
records = [
    ("Ac-FFDSKHFD[Orn(fluoroacetimidoyl)]EWIWSD-NH2 (SMILES CC[C@H](C)[C@H](NC(=O)[C@H](Cc1c[nH]c2ccccc12)NC(=O)[C@H](CCC(=O)O)NC(=O)[C@H](CCCNC(=N)CF)NC(=O)[C@H](CC(=O)O)NC(=O)[C@H](Cc1ccccc1)NC(=O)[C@H](Cc1c[nH]cn1)NC(=O)[C@H](CCCCN)NC(=O)[C@H](CO)NC(=O)[C@H](CC(=O)O)NC(=O)[C@H](Cc1ccccc1)NC(=O)[C@H](Cc1ccccc1)NC(C)=O)C(=O)N[C@@H](Cc1c[nH]c2ccccc12)C(=O)N[C@@H](CO)C(=O)N[C@@H](CC(=O)O)C(N)=O) [0741-01FA]", 69),
]
